Each recorded value in this set is attributed to the supplement of paper PMC8728848.

- target: Gal(b1-4)GlcNAc(b1-2)Man(a1-3)[Gal(b1-4)GlcNAc(b1-2)Man(a1-6)]Man(b1-4)GlcNAc(b1-4)GlcNAc
- assay-method-text: glycan array binding signal (z-score within array); higher = stronger binding
- test-settings: glycan notation: IUPAC condensed, linker removed
The sample as a whole holds a higher share of the strongest signals than the screen did.
endpoint-name: glycan array binding signal (z-score)
Give bare numbers.

binder	glycan array binding signal (z-score)
GALT1 615 (Arabidopsis thaliana), Q8L7F9 (protein) DPMRGSHHHHHHGMASMTGGQQMGRDLYDDDDKSRLQKPYITAAASVVVTPNTTLPMEWLRITLPDFMKEARNTQEAISGDDIAVVSGLFVEQNVSKEEREPLLTWNRLESLVDNAQSLVNGVDAIKEAGIVWESLVSAVEAKKLVDVNENQTRKGKEELCPQFLSKMNATEADGSSLKLQIPCGLTQGSSITVIGIPDGLVGSFRIDLTGQPLPGEPDPPIIVHYNVRLLGDKSTEDPVIVQNSWTASQDWGAEERCPKFDPDMNKKVDDLDECNKMVGGEINRTSSTSLQSNTSRGVPVAREASKHEKYFPFKQGFLSVATLRVGTEGMQMTVDGKHITSFAFRDTLEPWLVSEIRITGDFRLISILA	0.081
CTLY 1 (Homo sapiens), Q6ZS10 (protein) AITCPEGWLPFEGKCYYFSPSTKSWDEARMFCQENYSHLVIINSFAEHNFVAKAHGSPRVYWLGLNDRAQEGDWRWLDGSPVTLSFWEPEEPNNIHDEDCATMNKGGTWNDLSCYKTTYWICERKGLNDIFEAQKIEWHE	-0.242
LlpA1 (Pseudomonas fluorescens), Q4KHC3 (protein) MGSSHHHHHHSSGLVPRGSHMAWIRYDFTDNGSSVLPARYYMAPNQYLQSPNKRFKLLFQADGNLALYDGAQLAWVADQNTPFTNVSKGNKKDPMMVFMNYGFVLDDPLRGRIWSTTPSDPTMGSREDASLRAFTQVQDDGNIVTVDTIPHWYAPNGRVFTPAVGAAMIIGGTTELVPGQFYSAGEHSLVFQGDGNLVVYGPNSSVIWATYTQNKGGVRCVMQEDGNLVIYAANNGVVWQSGTGGHPGATIRLQANGSFTIVTERPVWARFGYTPTIKPPRVFYPDHKWKTGSYTWNNVF	-0.071

Quick batch: glycan array binding signal (z-score) for everything below.
1. AT3G44510(29) (Arabidopsis thaliana), F4J341 (protein) MEEHLQGRIKLHDGRYLAYKERGVPKDDAKFTIVLVHGFGSSKDMNFNVSQELVNEIGIYFVLYDRAGYGESDPNPKRSLKSEAYDVQELADGLEIGSRFYLIGISMGSYTVWSCLKHIPQRLAGVAMVAPVVNFRWPSIPKSLMPKDYRREVAKWSVWIANYFPGLLQWLVTQNMFSTTSMLEKNPVYFNDQDIEVLKHIKGFPMLTKEKLRERGVFGTLRSDFLVAFGDWDFDPADLPDPSLSGPEKGSSSVHIWQGYEDKVMPFQLQRCLCRKLPWIRYHEVPKGGHLIVHYDGICDAILKSLLLGEDLPMYKPKAVITEPA
2. Banana lectin (Musa acuminata) (protein) MNGAIKVGAWGGNGGSAFDMGPAYRIISVKIFSGDVVDAVDVTFTYYGKTETRHFGGSGGTPHEIVLQEGEYLVGMKGEFGNYHGVVVVGKLGFSTNKKSYGPFGNTGGTPFSLPIAAGKISGFFGRGGDFIDAIGVYLEP

1: -0.419; 2: -0.161

# glycan array binding signal (z-score) lookup, item SP15308B-bot-339-22-339 (Bacteroides ovatus) (protein) NEWEDEQYEQYVSFKAPIASGSDGVTTIYVRYKDNGKVTYQLPIIVSGSTVNSQDRDIHIAVDKDTLKTLNIERFSLYRPELWYTEMEEDKYEFPETVHIPAGSCVELLNIDFNLQDIDMLEKWVLPLTIVDDGSYAYQSHPRKNYAKALLKVVPFNNYSGSYTASSMKVYTYINGKPDTNARTTDKRTGYVVDNNSIFFYAGLINEDMDKDMRKKYKINVHFKEDGTLDMKQDDPSNEMEFELIGTPTYSSTSVMDATRPYLERRYVQIMFEYDFQDFTYGGSGTEVIPIKYRVAGSMTLLRNINTQIPDEDQQIEW
-0.534
